System: HCT116 cells
Assay: Measurement of effect of inhibiting cancer cell proliferation (MTT)
Format: cell-based, human
Conditions: Homo sapiens, HCT-116, 48 h
Description: HCT116 cells derived from human colorectal cancer (commercially available from the Korean Cell Line Bank) were used, and the effect of inhibiting cancer cell proliferation of the biguanide derivative was confirmed by measuring the concentration value (cell growth inhibition concentration, GIC50) at which cell growth was inhibited by 50% using a 3-(4,5-dimethylthiazol-2-yl)-2,5-diphenyltetrazolium bromide (MTT) reagent. […]
Readout label: GI50 (µM)

Molecule: Cl.N=C(NC(=N)N1CCCCC1)Nc1cc(Cl)cc(Cl)c1 [Example 61, hydrochloride]
GI50 / µM: 7.1
--
Molecule: Cl.N=C(NC(=N)N1CCCCC1)Nc1ccc(Cl)c(Cl)c1 [Example 64, hydrochloride]
GI50 / µM: 6.4

(P) Cl.N=C(NC(=N)N1CCCCCC1)Nc1cccc(Cl)c1 [Example 21, hydrochloride]
(Q) Cl.N=C(NC(=N)N1CCCC1)Nc1ccc(OC(F)(F)F)c(F)c1 [Example 53, hydrochloride]
Kindly identify which of P and Q has the larger recorded GI50 value. Let me know the label of the one you choose.
P
(P: 41.5 µM, Q: 7.6 µM)

* * *

Known AMPK activation effect at 50 μM (%) of a selection of molecules
Tested on: AMPKα
Assay: Measurement of AMPK activation effect (AMPKα Thr172 phosphorylation immunoassay) in MCF7 cells
Type: cell-based, human
Conditions: 50 μM, 24 hours, relative to untreated cells
Give the quantity in %, number only.

Structure string: Cl.N=C(NC(=N)N1CCC1)Nc1ccc(C(F)(F)F)cc1
AMPK activation effect at 50 μM (%): 156

# AMPK activation effect at 50 μM (%) lookup, item COc1cc(NC(=N)NC(=N)N2CCCCC2)cc(OC)c1.Cl
249

Quick one: CC(=O)Nc1ccc(NC(=N)NC(=N)N2CCCCC2)cc1.Cl
144

Quick one: Cl.N=C(NC(=N)N1CCCCC1)Nc1cccc(Cl)c1
558

* * *

Tested on: HCT116 cells
Experiment: Measurement of effect of inhibiting cancer cell proliferation (MTT)
Type: cell-based, human
Conditions: Homo sapiens, HCT-116, 100 μM, 48 hours, read-out: Cell Growth Inhibition (%) at 100 μM
Known inhibition at 100 µM of a selection of compounds
Give the quantity in %, number only.

Compound: Cl.N=C(NC(=N)N1CCCCC1)Nc1cccc(F)c1 [Example 16, hydrochloride]
inhibition at 100 µM (%): 67.2
--
Compound: Cl.N=C(NC(=N)N1CCCCC1)Nc1ccc(F)c(C(F)(F)F)c1 [Example 46, hydrochloride]
inhibition at 100 µM (%): 97
--
Compound: CS(=O)(=O)Nc1cccc(NC(=N)NC(=N)N2CCCCC2)c1.Cl [Example 41, hydrochloride]
inhibition at 100 µM (%): 18.8
--
Compound: Cl.N=C(NC(=N)N1CCCCC1)Nc1ccc(F)c(OC(F)(F)F)c1 [Example 50, hydrochloride]
inhibition at 100 µM (%): 97

Recall the recorded inhibition at 100 µM for COc1cc(NC(=N)NC(=N)N2CCCCC2)cc(OC)c1.Cl [Example 45, hydrochloride] with HCT116 cells and state it.
41.3

Quick one: Cl.N=C(NC(=N)N1CCC1)Nc1ccc(OC(F)(F)F)c(F)c1 [Example 52, hydrochloride]
101

Quick one: Cl.N=C(NC(=N)N1CCCCC1)Nc1ccc(-c2nnn[nH]2)cc1 [Example 40, hydrochloride]
0.9

Quick one: Cl.N=C(NC(=N)N1CCCCC1)Nc1ccc(Cl)c(Cl)c1 [Example 64, hydrochloride]
101

* * *

Test: Solubility in water of hydrochloride and acetate salts
Assay type: physicochemical
Conditions: content 5 mg/1 ml distilled water, room temperature
Readout label: Solubility in water (%), hydrochloride salt

// known answers, use as guide
Structure string: Cl.N=C(NC(=N)N1CCCCC1)Nc1ccc(OC(F)(F)F)c(F)c1
Measured value: 20
//
Structure string: Cl.N=C(NC(=N)N1CCCCC1)Nc1ccc(C(F)(F)F)c(F)c1
Measured value: 20
//
Structure string: Cl.N=C(NC(=N)N1CCCC1)Nc1ccc(C(F)(F)F)cc1
Measured value: 80

(A) Cl.N=C(NC(=N)N1CCCC1)Nc1ccc(C(F)(F)F)c(F)c1
(B) Cl.N=C(NC(=N)N1CCCC1)Nc1ccc(OC(F)(F)F)cc1
(C) Cl.N=C(NC(=N)N1CCCC1)Nc1ccc(OC(F)(F)F)c(F)c1
Endpoint returns the given compounds ordered by ascending Solubility in water (%), hydrochloride salt. Reply: labels, ordered per the request.
C, B, A
(C: 20%, B: 50%, A: 80%)

(P) Cl.N=C(NC(=N)N1CCCCC1)Nc1ccc(OC(F)(F)F)cc1
(Q) Cl.N=C(NC(=N)N1CCCCC1)Nc1ccc(C(F)(F)F)cc1
Lower value of Solubility in water (%), hydrochloride salt belongs to which: P or Q ? Let me know the label of the one you choose.
Q
(Q: 20%, P: 50%)

* * *

Test system: HCT116 cells
Assay: Measurement of effect of inhibiting cancer cell proliferation (MTT)
Assay type: cell-based, human
Settings: Homo sapiens, HCT-116, 100 μM, 48 hours, read-out: Cell Growth Inhibition (%) at 100 μM
Known inhibition at 100 µM of a selection of compounds
Give the quantity in %, number only.

// known answers, use as guide
Compound: Cl.N=C(NC(=N)N1CCCC1)Nc1ccc(C(F)(F)F)cc1 [Example 26, hydrochloride]
inhibition at 100 µM (%): 97.6
//
Compound: Cl.N=C(NC(=N)N1CCCCC1)Nc1ccc(C(F)(F)F)cc1 [Example 27, hydrochloride]
inhibition at 100 µM (%): 97.7
//
Compound: Cl.N=C(NC(=N)N1CCCCC1)Nc1ccc(OC(F)(F)F)cc1 [Example 33, hydrochloride]
inhibition at 100 µM (%): 97.9
//
Compound: Cl.N=C(NC(=N)N1CCCC1)Nc1ccc(OC(F)(F)F)cc1 [Example 32, hydrochloride]
inhibition at 100 µM (%): 97.6
//
Compound: Cl.N=C(NC(=N)N1CCCCC1)Nc1cccc(Cl)c1 [Example 20, hydrochloride]
inhibition at 100 µM (%): 97.5
//
Compound: CSc1ccc(NC(=N)NC(=N)N2CCCCC2)cc1.Cl [Example 43, hydrochloride]
inhibition at 100 µM (%): 98

# inhibition at 100 µM lookup, item Cl.N=C(NC(=N)N1CCCCC1)Nc1ccc(S(N)(=O)=O)cc1 [Example 44, hydrochloride]
32.6

Quick one: Cl.N=C(NC(=N)N1CCCC1)Nc1ccc(OC(F)(F)F)c(F)c1 [Example 53, hydrochloride]
101

* * *

Known melting point of a selection of molecules

// known answers, use as guide
Structure string: Cl.N=C(NC(=N)N1CCC1)Nc1ccc(OC(F)(F)F)c(Cl)c1
melting point: 254 to 255 °C

Structure string: Cl.N=C(NC(=N)N1CCCC1)Nc1ccc(Cl)cc1
melting point: 260 to 261 °C

Structure string: Cl.N=C(NC(=N)N1CCCC1)Nc1ccc(C(F)(F)F)cc1
melting point: 283 to 284 °C

# melting point lookup, item Cl.N=C(NC(=N)N1CCCCC1)Nc1cccc(Cl)c1
172 to 174 °C

Quick one: Cl.N=C(NC(=N)N1CCCCC1)Nc1ccc(F)cc1
269 to 270 °C

Quick one: CSc1ccc(NC(=N)NC(=N)N2CCCCC2)cc1.Cl
264 to 265 °C

Quick one: Cl.N=C(NC(=N)N1CCC1)Nc1ccc(C(F)(F)F)cc1
258 to 259 °C

* * *

Test system: HCT116 cells
Assay: Measurement of effect of inhibiting cancer cell proliferation (MTT)
Assay type: cell-based, human
Settings: Homo sapiens, HCT-116, 48 h
Readout label: GI50 (µM)

// known answers, use as guide
Compound: Cl.N=C(NC(=N)N1CCCCC1)Nc1ccc(Cl)cc1 [Example 18, hydrochloride]
GI50 (µM): 17
//
Compound: Cl.N=C(NC(=N)N1CCCCC1)Nc1cccc(Br)c1 [Example 7, hydrochloride]
GI50 (µM): 7

(a) Cl.N=C(NC(=N)N1CCCC1)Nc1cc(Br)cc(OC(F)(F)F)c1 [Example 66, hydrochloride]
(b) Cl.N=C(NC(=N)N1CCCC1)Nc1cccc(OC(F)(F)F)c1 [Example 28, hydrochloride]
(c) Cl.N=C(NC(=N)N1CCCCC1)Nc1ccc(Cl)cc1Cl [Example 62, hydrochloride]
(d) Cl.N=C(NC(=N)N1CCCCC1)Nc1cccc(Cl)c1 [Example 20, hydrochloride]
(e) Cl.N=C(NC(=N)N1CCCCC1)Nc1cccc(F)c1 [Example 16, hydrochloride]
Endpoint returns the given compounds ordered by ascending GI50. Reply: labels, ordered per the request.
a, c, b, d, e

* * *

Tested on: HCT116 cells
Experiment: Measurement of effect of inhibiting cancer cell proliferation (MTT)
Type: cell-based, human
Settings: Homo sapiens, HCT-116, 48 h
Known GI50 of a selection of molecules

Molecule: CC(=O)Nc1cccc(NC(=N)NC(=N)N2CCCCC2)c1.Cl [Example 39, hydrochloride]
System tested: HCT116 cells
Readout label: GI50
Measured value: > 100 µM
//
Molecule: Cl.N=C(NC(=N)N1CCCCC1)Nc1ccc(-c2nnn[nH]2)cc1 [Example 40, hydrochloride]
System tested: HCT116 cells
Readout label: GI50
Measured value: > 100 µM

Could you now consider this next molecule?
# GI50 lookup, item CS(=O)(=O)Nc1cccc(NC(=N)NC(=N)N2CCCCC2)c1.Cl [Example 41, hydrochloride]
> 100 µM

Data provenance: patent US9540325B2
